molecular target: UniProtKB Q72874
Each entry below lists one item and its recorded Ki value.
Metric name: Ki (nM)

1) Nc1nc2cc(CN3C(=O)N(Cc4ccc5sc(N)nc5c4)[C@H](Cc4ccccc4)[C@H](O)[C@@H](O)[C@H]3Cc3ccccc3)ccc2s1
190
2) O=C1N(Cc2ccc3c(c2)NS(=O)(=O)N3)[C@H](Cc2ccccc2)[C@H](O)[C@@H](O)[C@@H](Cc2ccccc2)N1Cc1ccc2c(c1)NS(=O)(=O)N2
0.19
3) Nc1nc2ccc(CN3C(=O)N(Cc4ccc5nc(N)oc5c4)[C@H](Cc4ccccc4)[C@H](O)[C@@H](O)[C@H]3Cc3ccccc3)cc2o1
0.2
4) O=C1N(Cc2ccc3scnc3c2)[C@H](Cc2ccccc2)[C@H](O)[C@@H](O)[C@@H](Cc2ccccc2)N1Cc1ccc2scnc2c1
28
5) O=C1N(Cc2ccc3[nH]cnc3c2)[C@H](Cc2ccccc2)[C@H](O)[C@@H](O)[C@@H](Cc2ccccc2)N1Cc1ccc2[nH]cnc2c1
11
6) O=C1N(Cc2ccc3[nH]ncc3c2)[C@H](Cc2ccccc2)[C@H](O)[C@@H](O)[C@@H](Cc2ccccc2)N1Cc1ccc2[nH]ncc2c1
0.018
7) O=C1N(Cc2ccc3nc(O)oc3c2)[C@H](Cc2ccccc2)[C@H](O)[C@@H](O)[C@@H](Cc2ccccc2)N1Cc1ccc2nc(O)oc2c1
0.18
8) O=C1Nc2ccc(CN3C(=O)N(Cc4ccc5c(c4)C(=O)C(=O)N5)[C@H](Cc4ccccc4)[C@H](O)[C@@H](O)[C@H]3Cc3ccccc3)cc2C1=O
0.81

====

assay: Bioavailability was evaluated in dog; format: ADME, organism-based, Canis lupus familiaris; conditions: in vivo
Metric name: bioavailability

1. O=C1N(Cc2ccc3[nH]ncc3c2)[C@H](Cc2ccccc2)[C@H](O)[C@@H](O)[C@@H](Cc2ccccc2)N1Cc1ccc2[nH]ncc2c1
13%

====

test: Half life period was evaluated in rats; type: ADME, organism-based; settings: rat, in vivo
Metric name: half-life (h)

1. O=C1N(Cc2ccc3[nH]ncc3c2)[C@H](Cc2ccccc2)[C@H](O)[C@@H](O)[C@@H](Cc2ccccc2)N1Cc1ccc2[nH]ncc2c1
2.7
